TARGET OF ASSAY: T1, HLA-A*02:01 (peptide-receptive MHC class I monomer after UV cleavage of the UV-sensitive ligand) (human)
T1 construct: MHC monomers loaded by UV-ligand exchange and captured on streptavidin plates
ASSAY: UV ligand-exchange ELISA; exchange yield grade (+ >=10%, ++ >=20%, +++ >=50%, ++++ >=75%)
binders and their reported peptide exchange yield

Guide cases for peptide exchange yield, answers given:
BINDER: YLTAEILELAGN [YLTAEILELAGN (SEQ ID NO: 38)]
peptide exchange yield: 20 to 50%
--
BINDER: IMDDDSYGV [IMDDDSYGV (SEQ ID NO: 230)]
peptide exchange yield: 20 to 50%
--
BINDER: ILTGTPPGV [ILTGTPPGV (SEQ ID NO: 264)]
peptide exchange yield: 50 to 75%
--
BINDER: ALQETPPQV [ALQETPPQV (SEQ ID NO: 256)]
peptide exchange yield: 50 to 75%
--
BINDER: IIAEGIPEA [IIAEGIPEA (SEQ ID NO: 227)]
peptide exchange yield: 20 to 50%

Please examine the following record next.
Ask: Any idea what peptide exchange yield was measured for FIAQLNNVEL [FIAQLNNVEL (SEQ ID NO: 185)] ?
Result: 50 to 75%
